FYI, the data here is from paper PMC5540273.

%Inh: recorded values
Tested on: RPS6KA5(Kin.Dom.2-C-terminal)
Conditions: concentration: 1 μM, replicates: in singlicate; n = 1;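 note: KINOMEscan kinase panel screen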
Could you kindly put the unit after your number?

Please report the recorded %Inh for COC(=O)c1cccc(NC(=O)NC2CCN(c3ccnc(Nc4ccc(OC)cc4)n3)C2)c1 (centres unmarked) .
0%

For "O=C1NC(=O)C(c2ccc(Cl)cc2)=C1Nc1ccc(O)cc1" , what is its reported %Inh?
0%

Param item = "O=C(Nc1n[nH]c2nc(-c3cccs3)c(Br)cc12)C1CC1" ; retrieve measured %Inh.
4%

###

Reported %Inh by item:
System: PRKCD
Conditions: concentration: 1 μM, replicates: in singlicate; n = 1

Consider the worked cases shown below.
- COMPOUND: "O=C(Nc1n[nH]c2cc(-c3ccsc3)ccc12)C1CC1 [SB-732932]"
  DATA VALUE: "0%"
- COMPOUND: "CC(=O)c1c(C)c2cnc(Nc3ccc(N4CCNCC4)cn3)nc2n(C2CCCC2)c1=O"
  DATA VALUE: "18%"
- COMPOUND: "O=C(Nc1n[nH]c2nc(-c3cccs3)c(Br)cc12)C1CC1 [SB-735297]"
  DATA VALUE: "7%"
- COMPOUND: "COc1ccc(Nc2nccc(N3CCC(NC(=O)c4cc5ccccc5s4)C3)n2)cc1 (stereo not drawn) [GSK1379738]"
  DATA VALUE: "0%"
- COMPOUND: "Cc1ccc(NC(=O)Nc2ccc(Cl)cc2)cc1-c1ccc(C(=O)Nc2ccncc2)cc1 [GSK1398472]"
  DATA VALUE: "0%"

// switching to the query compound
Request: %Inh, test system PRKCD, entry Cn1cncc1-c1cc2c(Nc3ccc(OCc4ccccc4)cc3)ncnc2cn1 [GW281179]
3%

###

Tested on: ULK3
Conditions: concentration: 1 μM, replicates: in singlicate; n = 1
Listed here are compounds together with their documented %Inh.
Express your answer in %, writing the number without its unit.

Example compounds with recorded %Inh:
- COMPOUND: "Cn1cncc1C(=O)NC1CCN(c2ccnc(Nc3ccc(F)cc3)n2)C1 (stereo not shown)"
  TARGET OR TEST SYSTEM: "ULK3"
  DATA VALUE: 17
- COMPOUND: "Cc1nccc(-c2c(-c3ccc(F)cc3)ncn2CCCN2CCOCC2)n1.Cl"
  TARGET OR TEST SYSTEM: "ULK3"
  DATA VALUE: 20
- COMPOUND: "Cl.Cl.Cl.N#Cc1ccc(CCNc2nccc(-c3cccc(CN4CCNCC4)c3)n2)cc1"
  TARGET OR TEST SYSTEM: "ULK3"
  DATA VALUE: 2
- COMPOUND: "O=C(Nc1n[nH]c2nc(-c3cccs3)c(Br)cc12)C1CC1"
  TARGET OR TEST SYSTEM: "ULK3"
  DATA VALUE: 3
- COMPOUND: "COc1nccc(-c2c(-c3ccc(F)cc3)ncn2CCCN2CCOCC2)n1"
  TARGET OR TEST SYSTEM: "ULK3"
  DATA VALUE: 12
- COMPOUND: "COc1ccc(Nc2nccc(N3CCC(NC(=O)c4cc5ccccc5s4)C3)n2)cc1 (stereo not shown)"
  TARGET OR TEST SYSTEM: "ULK3"
  DATA VALUE: 14

Reported %Inh, compound "COc1cc2ncnc(Nc3cccc(Br)c3)c2cc1OC.Cl" : ____
17

Returns the measured %Inh for the input compound. Input: "Nc1nccc(-c2c(-c3ccc(F)cc3)ncn2C2CCN(Cc3ccccc3)CC2)n1"
22

Item under review: "Cc1c(Cn2c3ccccc3n3c(=O)cc(N4CCOCC4)nc23)cccc1C(F)(F)F" . Reported %Inh?
7

Can you share its %Inh? I mean this compound: "Cc1c(Cn2c(C)c(C)n3c(=O)cc(N4CCOCC4)nc23)cccc1C(F)(F)F"
14
